# tested.target: ErbB3 on rat Schwann cells (rat) (UniProt Q62799)
# Sequence (Q62799 20-1339): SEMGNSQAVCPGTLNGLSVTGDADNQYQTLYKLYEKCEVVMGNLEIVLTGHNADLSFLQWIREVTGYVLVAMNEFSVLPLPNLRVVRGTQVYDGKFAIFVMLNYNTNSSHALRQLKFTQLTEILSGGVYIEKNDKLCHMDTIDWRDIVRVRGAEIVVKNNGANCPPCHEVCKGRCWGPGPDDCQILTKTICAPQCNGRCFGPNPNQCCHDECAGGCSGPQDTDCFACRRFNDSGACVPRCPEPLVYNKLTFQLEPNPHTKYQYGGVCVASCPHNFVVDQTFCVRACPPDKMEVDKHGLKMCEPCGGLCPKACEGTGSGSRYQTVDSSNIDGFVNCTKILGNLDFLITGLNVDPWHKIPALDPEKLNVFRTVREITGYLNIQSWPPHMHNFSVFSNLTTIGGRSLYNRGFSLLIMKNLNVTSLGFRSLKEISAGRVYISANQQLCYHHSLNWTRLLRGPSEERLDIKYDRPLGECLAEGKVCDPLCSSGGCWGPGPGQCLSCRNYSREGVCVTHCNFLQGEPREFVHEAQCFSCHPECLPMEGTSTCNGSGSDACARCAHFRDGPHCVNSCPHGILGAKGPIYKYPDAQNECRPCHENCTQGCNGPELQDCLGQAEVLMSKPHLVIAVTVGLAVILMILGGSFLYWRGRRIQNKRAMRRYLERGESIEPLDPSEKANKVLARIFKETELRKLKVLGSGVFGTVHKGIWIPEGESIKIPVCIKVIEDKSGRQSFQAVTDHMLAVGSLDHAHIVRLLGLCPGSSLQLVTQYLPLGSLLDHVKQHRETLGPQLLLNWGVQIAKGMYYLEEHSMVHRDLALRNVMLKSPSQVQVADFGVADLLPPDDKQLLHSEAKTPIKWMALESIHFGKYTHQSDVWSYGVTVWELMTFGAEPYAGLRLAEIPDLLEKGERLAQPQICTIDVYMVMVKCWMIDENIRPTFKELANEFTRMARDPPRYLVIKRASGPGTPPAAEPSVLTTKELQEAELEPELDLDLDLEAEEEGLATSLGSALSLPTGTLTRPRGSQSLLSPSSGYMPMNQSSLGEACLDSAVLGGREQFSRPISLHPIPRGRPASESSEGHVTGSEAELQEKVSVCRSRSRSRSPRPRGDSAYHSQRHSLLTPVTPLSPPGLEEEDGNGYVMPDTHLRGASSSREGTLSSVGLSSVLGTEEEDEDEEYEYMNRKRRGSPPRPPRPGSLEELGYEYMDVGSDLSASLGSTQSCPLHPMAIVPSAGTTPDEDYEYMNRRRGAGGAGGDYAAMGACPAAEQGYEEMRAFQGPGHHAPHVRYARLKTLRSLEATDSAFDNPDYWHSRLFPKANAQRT
# method: cell-based or functional assay
quantity.kind: Schwann cells (SC) (ErbB3) Avg EC50 (µM)
Just the number please, in µM, no unit attached.

The following binders have reported results that may help.
binder="huNRG1(S177-Q237)(2F2)::GG::huFcSEFL2 (Pb) (Fc fusion) SHLVKCAESEKTFCVNGGECYMIEHPSNPSRFLCKCPNEFTGDRCQNVFMASFYKAEELYQGGDKTHTCPPCPAPELLGGPSVFLFPPKPKDTLMISRTPEVTCVVVDVSHEDPEVKFNWYVDGVEVHNAKTKPCEEQYGSTYRCVSVLTVLHQDWLNGKEYKCKVSNKALPAPIEKTISKAKGQPREPQVYTLPPSREEMTKNQVSLTCLVKGFYPSDIAVEWESNGQPENNYKTTPPVLDSDGSFFLYSKLTVDKSRWQQGNVFSCSVMHEALHNHYTQKSLSLSPGK" unit_info=µM meas_value=0.202
binder="huNRG1(S177-Q237)(NRGE1M)::GG::huFcSEFL2 (Pb) (Fc fusion) SHLVKCGENDKSFCVNGGECFMIEGPSNPSRYLCKCPNEFTGDRCQDFFMASFYKAEELYQGGDKTHTCPPCPAPELLGGPSVFLFPPKPKDTLMISRTPEVTCVVVDVSHEDPEVKFNWYVDGVEVHNAKTKPCEEQYGSTYRCVSVLTVLHQDWLNGKEYKCKVSNKALPAPIEKTISKAKGQPREPQVYTLPPSREEMTKNQVSLTCLVKGFYPSDIAVEWESNGQPENNYKTTPPVLDSDGSFFLYSKLTVDKSRWQQGNVFSCSVMHEALHNHYTQKSLSLSPGK" unit_info=µM meas_value=1.01
binder="huNRG1(S177-Q237)(2G3)::GG::huFcSEFL2 (Pb) (Fc fusion) SHLVKCGERQKSFCVNGGECYMVEDLSIPSRYLCKCPNEFTGDRCQKVFMASFYKAEELYQGGDKTHTCPPCPAPELLGGPSVFLFPPKPKDTLMISRTPEVTCVVVDVSHEDPEVKFNWYVDGVEVHNAKTKPCEEQYGSTYRCVSVLTVLHQDWLNGKEYKCKVSNKALPAPIEKTISKAKGQPREPQVYTLPPSREEMTKNQVSLTCLVKGFYPSDIAVEWESNGQPENNYKTTPPVLDSDGSFFLYSKLTVDKSRWQQGNVFSCSVMHEALHNHYTQKSLSLSPGK" unit_info=µM meas_value=0.0608
binder="huNRG1(S177-Q237)(2G4)::GG::huFcSEFL2 (Pb) (Fc fusion) SHLVKCAENEKTFCVNGGECFVVEGLSIPSRYLCKCPNEFTGDRCQDVFMASFYKAEELYQGGDKTHTCPPCPAPELLGGPSVFLFPPKPKDTLMISRTPEVTCVVVDVSHEDPEVKFNWYVDGVEVHNAKTKPCEEQYGSTYRCVSVLTVLHQDWLNGKEYKCKVSNKALPAPIEKTISKAKGQPREPQVYTLPPSREEMTKNQVSLTCLVKGFYPSDIAVEWESNGQPENNYKTTPPVLDSDGSFFLYSKLTVDKSRWQQGNVFSCSVMHEALHNHYTQKSLSLSPGK" unit_info=µM meas_value=1
binder="huNRG1(S177-F229)(NRGE1C) (E47A_D48P_F49H_M50I) 6xHis (ligand) SHLVKCGEKHKSFCVNGGECFMIEGPSNPSRYLCKCPNEFTGDRCQAPHIASFGGGGEGGGGAGGGGHHHHHH" unit_info=µM meas_value=10

**Q:** Record request: Schwann cells (SC) (ErbB3) Avg EC50 value, item huNRG1(S177-Q237)(2E3)::GG::huFcSEFL2 (Pb) (Fc fusion) SHLVKCGEKEKSFCVNGGECYMIEGLSIPSRFLCKCPNEFTGDRCQDVFMASFYKAEELYQGGDKTHTCPPCPAPELLGGPSVFLFPPKPKDTLMISRTPEVTCVVVDVSHEDPEVKFNWYVDGVEVHNAKTKPCEEQYGSTYRCVSVLTVLHQDWLNGKEYKCKVSNKALPAPIEKTISKAKGQPREPQVYTLPPSREEMTKNQVSLTCLVKGFYPSDIAVEWESNGQPENNYKTTPPVLDSDGSFFLYSKLTVDKSRWQQGNVFSCSVMHEALHNHYTQKSLSLSPGK
**A:** 1

**Q:** Would you kindly share the measured Schwann cells (SC) (ErbB3) Avg EC50 for huNRG1(S177-Q237)(3B8)::GG::huFcSEFL2 (Pb) (Fc fusion) SHLVKCGERDKSFCVNGGECFMVERSSIPSRYLCKCPNEFTGDRCQDFFLASFYKAEELYQGGDKTHTCPPCPAPELLGGPSVFLFPPKPKDTLMISRTPEVTCVVVDVSHEDPEVKFNWYVDGVEVHNAKTKPCEEQYGSTYRCVSVLTVLHQDWLNGKEYKCKVSNKALPAPIEKTISKAKGQPREPQVYTLPPSREEMTKNQVSLTCLVKGFYPSDIAVEWESNGQPENNYKTTPPVLDSDGSFFLYSKLTVDKSRWQQGNVFSCSVMHEALHNHYTQKSLSLSPGK ?
**A:** 3
